- testedOn: Serine/threonine-protein kinase PAK 1 (Homo sapiens) (UniProt Q13153)
- Sequence (Q13153 whole entry): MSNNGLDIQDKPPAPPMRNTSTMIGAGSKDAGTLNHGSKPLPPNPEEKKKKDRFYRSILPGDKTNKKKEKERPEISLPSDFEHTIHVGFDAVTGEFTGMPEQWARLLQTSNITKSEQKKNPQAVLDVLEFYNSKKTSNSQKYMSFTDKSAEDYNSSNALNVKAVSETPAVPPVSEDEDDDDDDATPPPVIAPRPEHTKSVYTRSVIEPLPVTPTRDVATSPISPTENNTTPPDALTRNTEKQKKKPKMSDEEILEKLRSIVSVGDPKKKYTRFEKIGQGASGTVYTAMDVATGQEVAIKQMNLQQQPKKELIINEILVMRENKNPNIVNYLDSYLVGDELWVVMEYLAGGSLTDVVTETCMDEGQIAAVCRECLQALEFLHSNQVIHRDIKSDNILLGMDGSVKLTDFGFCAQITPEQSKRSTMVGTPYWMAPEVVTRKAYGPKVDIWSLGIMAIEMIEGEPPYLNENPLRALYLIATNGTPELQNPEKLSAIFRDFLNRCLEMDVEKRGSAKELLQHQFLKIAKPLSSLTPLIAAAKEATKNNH
- measurementSetup: at 1 µM;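 also: reported values are mean percent inhibition of PAK1 activity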
Would you mind telling me the reported inhibition of each entry?
Write the value in % as a bare number.

Briefly, inhibition measured for COc1cc2ncn(-c3cc(OCc4ccccc4C(F)(F)F)c(C(N)=O)s3)c2cc1OC : 7.26

Briefly, inhibition measured for Cc1ccc(C(=O)NC2CCCCC2)cc1-c1ccc(C(=O)NCC2CC2)cc1 : 4.6

Briefly, inhibition measured for CC1=C(C(=O)Nc2ccc3[nH]ncc3c2)C(c2ccc(Cl)c(Cl)c2)CC(=O)N1 (stereo not given) : 3.36

Briefly, inhibition measured for CS(=O)(=O)CCNCc1ccc(-c2ccc3ncnc(Nc4ccc(OCc5cccc(F)c5)c(C(F)(F)F)c4)c3c2)o1 : 8.2

Briefly, inhibition measured for Nc1ncnc2occ(-c3ccc(NC(=O)Nc4cccc(C(F)(F)F)c4)cc3)c12 : 5.2

Briefly, inhibition measured for CCn1c(-c2nonc2N)nc2ccncc21 : 2.38

Briefly, inhibition measured for CC(C)=Cc1cccc2c1/C(=N/Nc1ccc(S(N)(=O)=O)cc1)C(=O)N2 : 1.28

Briefly, inhibition measured for COc1ccc(-c2nn3ncccc3c2-c2ccnc(Nc3ccc(Cl)c(C(F)(F)F)c3)n2)cc1 : 0.59

Briefly, inhibition measured for CCn1c(-c2nonc2N)nc2cncc(C(=O)N3CCNCC3)c21 : 15.3

Briefly, inhibition measured for O=C1NC(=O)C(c2cccc(Cl)c2)=C1Nc1ccc(O)c(Cl)c1 : 4.48

Briefly, inhibition measured for CCn1c(-c2nonc2N)nc2cncc(C(=O)N3CC[C@H](N)C3)c21 : 8.87

Briefly, inhibition measured for [O-][S+]1CCN(Cc2ccc(-c3ccc4ncnc(Nc5ccc(OCc6ccccc6)c(F)c5)c4c3)o2)CC1 : 5.06

Briefly, inhibition measured for CNC(=O)c1cncc(/C=C/c2c(Cl)cccc2Cl)c1 : 11

Briefly, inhibition measured for COc1cc2c(cc1Nc1nc(N3CCc4ccccc43)c3cc[nH]c3n1)N(C(=O)CN(C)C)CC2 : 4.36

Briefly, inhibition measured for NS(=O)(=O)c1cccc(-c2ccc3c(NC(=O)C4CC4)n[nH]c3c2)c1 : 0.04

Briefly, inhibition measured for COc1cc2ncn(-c3cc(O[C@H](C)c4ccccc4Cl)c(C(N)=O)s3)c2cc1OC : 4.82

Briefly, inhibition measured for Cn1cc(C=C2C(=O)Nc3cccnc32)c2ccccc21 : 6

Briefly, inhibition measured for COC(=O)Nc1nc2cc(Oc3ccc(NC(=O)Nc4cccc(C(=O)O)c4)cc3)ccc2[nH]1 : 2.31

Briefly, inhibition measured for Cc1cccc(-c2n[nH]cc2-c2ccc3ncccc3n2)n1 : 3.22

Briefly, inhibition measured for O=C1NC(=O)C(N2CCc3ccccc32)=C1c1ccc(Cl)cc1 : 7.01

Briefly, inhibition measured for CC1=C(C(=O)Nc2ccc3[nH]ncc3c2)C(c2ccc(F)cc2)NC(=O)N1 (stereo not given) : 9.83

Briefly, inhibition measured for CN(C)c1cc2c(Nc3ccc4nc(Cc5ccccc5)[nH]c4c3)ncnc2cn1 : 8.45

Briefly, inhibition measured for COc1ccc(-c2ccncc2)cc1C(N)=O : 10

Briefly, inhibition measured for NS(=O)(=O)c1ccc(N/N=C2\C(=O)Nc3ccc(C(=O)NCCc4c[nH]cn4)cc32)cc1 : 7.85

Briefly, inhibition measured for COc1cc2ncn(-c3cc(O[C@@H](C)c4ccccc4Cl)c(C(N)=O)s3)c2cc1OC : 9.51

Data credit: ChEMBL document CHEMBL1961873
